Assay: inhibitors of TNFa-induced NFkB p65 translocation, primary screen, imaging, HUVEC, MLSMR starter and 10KST1 sets (AID 438);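 further: compound added about 3h40 before a 20 min TNFalpha stimulation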
Details: HUVEC TNFa-induced p65 nuclear translocation; measured here: nuclei count (cytotoxicity indicator), at 2.08 µM
Given measured cell count, output rule met if it is greater than or equal to 600 and rule not met if not.

// known answers, use as guide
- compound: "O=C1CCC(=O)N1CNc1ccccn1"
  assigned category: "rule not met"
- compound: "COC(=O)C(NC(C)=O)(Nc1ccccn1)C(F)(F)F (stereo not given)"
  assigned category: "rule not met"
- compound: "COc1ccc(Cl)cc1N=Cc1c(O)cc(C)oc1=O"
  assigned category: "rule not met"
- compound: "CC(C)Oc1ccc(/C(O)=C2/C(=O)C(=O)N(CCN(C)C)C2c2ccco2)cc1 (stereo not given)"
  assigned category: "rule not met"
- compound: "O=C(O)CCCCCCC1C(=O)NC(=O)N1CCC(O)C1CCCCC1 (stereo not given)"
  assigned category: "rule not met"
- compound: "N#CC1=C(N)NC(SCc2ccc(Cl)cc2)=C(C#N)C12CCCCC2"
  assigned category: "rule met"
- compound: "CCOC(=O)c1[nH]c2ccc(Br)cc2c1NC(=O)CCN1CCN(C(=O)OCC)CC1"
  assigned category: "rule not met"
- compound: "COc1ccc(C2/C(=C(/O)c3cnn(-c4ccccc4)c3C)C(=O)C(=O)N2CCN(C)C)cc1OC (stereo not given)"
  assigned category: "rule not met"
- compound: "CN(C)/C=C1\\N=C(c2ccc(Cl)cc2Cl)OC1=O"
  assigned category: "rule met"
- compound: "CCN(CC)CCN1C(=O)C(O)=C(C(=O)c2ccco2)C1c1ccccn1 (stereo not given)"
  assigned category: "rule not met"

Prompt: Can CN(C)CCCN1C(=O)C(O)=C(C(=O)c2cc3ccccc3o2)C1c1ccccc1 (stereo not given) be said to have cell count at or above 600?
Completion: rule not met

Prompt: Can O=C(NCc1cccnc1)c1ccc(=O)oc1 be said to have cell count at or above 600?
Completion: rule met

Prompt: Can CC(C)(S)[C@@H](N)C(=O)O be said to have cell count at or above 600?
Completion: rule met

Prompt: Can CC(C)Cc1nc(N2CCN(C(=O)C(C)C)CC2)c(C#N)c2c1CCC2 be said to have cell count at or above 600?
Completion: rule not met

Prompt: Can COc1ccc2c(c1)nc(N)n2Cc1ccccc1 be said to have cell count at or above 600?
Completion: rule not met

Prompt: Can CC1(C)Cc2c(C#N)c(SCCC#N)nc(N3CCOCC3)c2CS1 be said to have cell count at or above 600?
Completion: rule met

Prompt: Can Cc1cccc(C)c1OCC(O)CNS(=O)(=O)c1ccccc1C(=O)N1CCOCC1 (stereo not given) be said to have cell count at or above 600?
Completion: rule not met

Prompt: Can CNC[C@H](O)c1cccc(O)c1 be said to have cell count at or above 600?
Completion: rule not met

Prompt: Can COC(=O)C1=C(N)Oc2cc(C)[nH]c(=O)c2C1c1ccncc1 (stereo not given) be said to have cell count at or above 600?
Completion: rule not met

Prompt: Can CCc1cc2c(=O)c(-c3cscn3)coc2cc1O be said to have cell count at or above 600?
Completion: rule not met

Prompt: Can Cc1ccccc1N1C(=O)C2ON(c3ccccc3)C(c3ccncc3)C2C1=O (stereo not given) be said to have cell count at or above 600?
Completion: rule not met

Prompt: Can Cc1nc(-c2coc3cc(OCC(=O)O)ccc3c2=O)cs1 be said to have cell count at or above 600?
Completion: rule met

Prompt: Can COc1ccc(Nc2oc(-c3cccs3)nc2C#N)cc1 be said to have cell count at or above 600?
Completion: rule not met
